molecular target: recombinant HTLV-1 protease (1-116, L40I) (Human T-cell leukemia virus 1, UniProt P10274, L489I); construct: examined using the recombinant HTLV-1 protease (1-116, L40I) and a substrate dodecapeptide; assay: biochemical
Sequence (P10274 450-565 L489I): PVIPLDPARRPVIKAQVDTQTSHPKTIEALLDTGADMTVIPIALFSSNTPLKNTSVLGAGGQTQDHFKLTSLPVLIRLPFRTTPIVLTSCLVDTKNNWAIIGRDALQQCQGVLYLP
Numbered stars: 1 amine (or outer) side, 2 acyl side, 3 side chain; on linkers, the order of the positions; unused ones are H or OH. Square brackets hold non-standard residues; d marks the D form. Peptide text beside a SMILES is read from it. X1 = CC(C)C[C@H](C(=O)[*:2])[C@H](O)C[C@H]1CCCN1[*:1]; d(aIle) = CC[C@H](C)[C@@H](N)C(=O)O

MOLECULE	IC50
CC[C@@H](C)[C@@H](NC(=O)[C@@H](CC(C)C)[C@H](O)C[C@H]1CCCN1C(=O)[C@H](NC(C)=O)[C@H](C)CC)C(=O)N[C@@H](C(=O)N1CCC[C@@H]1C(=O)N1CCC[C@@H]1C(N)=O)C(C)C [RI-inhibitor 3] (Ac-[dI][X1][dI][dV][dP][dP]-NH2)	240 µM
CC[C@@H](C)[C@@H](NC(=O)[C@@H](CC(C)C)[C@H](O)C[C@H]1CCCN1C(=O)[C@H](NC(C)=O)[C@@H](C)CC)C(=O)N[C@@H](C(=O)N1CCC[C@@H]1C(=O)N1CCC[C@@H]1C(N)=O)C(C)C [RI-inhibitor 8] (Ac-[d(aIle)][X1][dI][dV][dP][dP]-NH2)	110 µM
CC[C@@H](C)[C@@H](NC(C)=O)C(=O)N1CCC[C@@H]1C[C@@H](O)[C@H](CC(C)C)C(=O)N[C@@H](C(=O)N[C@@H](C(=O)N1CCC[C@@H]1C(=O)N1CCC[C@@H]1C(N)=O)C(C)C)[C@@H](C)CC [RI-inhibitor 9] (Ac-[dI][X1][d(aIle)][dV][dP][dP]-NH2)	130 µM
CC[C@H](C)[C@@H](NC(=O)[C@@H](CC(C)C)[C@H](O)C[C@H]1CCCN1C(=O)[C@H](NC(C)=O)[C@@H](C)CC)C(=O)N[C@@H](C(=O)N1CCC[C@@H]1C(=O)N1CCC[C@@H]1C(N)=O)C(C)C [RI-inhibitor 10] (Ac-[d(aIle)][X1][d(aIle)][dV][dP][dP]-NH2)	85 µM

Just for reference, paper PMC8911550 is where these values come from.
